// provenance: patent US20230312473A1

# experimental_details: Solubility of compound 1 in the solvent under evaluation at 22° C. and 65° C. (crystallization study)
# Format: physicochemical
# condition_parameters: water, 65 °C, water, thermodynamic from solid, solvent: Water; read-out: Solubility at 65° C.

{"columns": ["chemical_structure", "solubility"],
 "data": [
  ["Nc1ncc(-c2cc(N3C[C@@H]4C[C@H]3CO4)nc(N3CCC(F)(F)C3)n2)cc1OC(F)F", "< 50 mg/mL"]
]}

* * *

# experimental_details: Solubility of compound 1 in the solvent under evaluation at 22° C. and 65° C. (crystallization study)
# Assay type: physicochemical
# condition_parameters: 50% water in ethanol, 22 °C, aqueous with cosolvent or surfactant or cyclodextrin, thermodynamic from solid, solvent: 50% water in ethanol; read-out: Solubility at 22° C.
attribute_measured: solubility

{"columns": ["molecule", "measured_value"],
 "data": [
  ["Nc1ncc(-c2cc(N3C[C@@H]4C[C@H]3CO4)nc(N3CCC(F)(F)C3)n2)cc1OC(F)F [Compound 1]", "< 50 mg/mL"]
]}

* * *

# experimental_details: Solubility of compound 1 in the solvent under evaluation at 22° C. and 65° C. (crystallization study)
# Type: physicochemical
# condition_parameters: butanol, 22 °C, organic solvent or mixture, thermodynamic from solid, solvent: Butanol; read-out: Solubility at 22° C.

{"columns": ["compound", "solubility"],
 "data": [
  ["Nc1ncc(-c2cc(N3C[C@@H]4C[C@H]3CO4)nc(N3CCC(F)(F)C3)n2)cc1OC(F)F [Compound 1]", "< 50 mg/mL"]
]}

* * *

# experimental_details: Solubility of compound 1 in the solvent under evaluation at 22° C. and 65° C. (crystallization study)
# Format: physicochemical
# condition_parameters: propanol, 65 °C, organic solvent or mixture, thermodynamic from solid, solvent: Propanol; read-out: Solubility at 65° C.
# Experimental: Crystalline compound 1 was evaluated. Crystallization study procedures were done based on the solubility of compound 1 in the solvent under evaluation as follows. The results are presented below in Table 10 where: * refers to compound 1 prepared as described above; and ** refers to compound 1 prepared as described above and further incubated at 100% relative humidity at 22° C. for 17 days.
attribute_measured: solubility

{"columns": ["molecule", "attribute_measured", "measured_value"],
 "data": [
  ["Nc1ncc(-c2cc(N3C[C@@H]4C[C@H]3CO4)nc(N3CCC(F)(F)C3)n2)cc1OC(F)F [Compound 1]", "solubility", "< 50 mg/mL"]
]}

* * *

# experimental_details: Solubility of compound 1 in the solvent under evaluation at 22° C. and 65° C. (crystallization study)
# Assay type: physicochemical
# condition_parameters: 15% water in isopropanol, 22 °C, organic solvent or mixture, thermodynamic from solid, solvent: 15% water in isopropanol; read-out: Solubility at 22° C.

{"columns": ["chemical_structure", "solubility"],
 "data": [
  ["Nc1ncc(-c2cc(N3C[C@@H]4C[C@H]3CO4)nc(N3CCC(F)(F)C3)n2)cc1OC(F)F", "< 50 mg/mL"]
]}

* * *

# experimental_details: Solubility of compound 1 in the solvent under evaluation at 22° C. and 65° C. (crystallization study)
# Assay type: physicochemical
# condition_parameters: Chloroform, 65 °C, organic solvent or mixture, solvent: Chloroform; read-out: Solubility at 65° C.

{"columns": ["chemical_structure", "solubility"],
 "data": [
  ["Nc1ncc(-c2cc(N3C[C@@H]4C[C@H]3CO4)nc(N3CCC(F)(F)C3)n2)cc1OC(F)F", "> 50 mg/mL"]
]}

* * *

# experimental_details: Solubility of compound 1 in the solvent under evaluation at 22° C. and 65° C. (crystallization study)
# Type: physicochemical
# condition_parameters: 50% water in propanol, 65 °C, aqueous with cosolvent or surfactant or cyclodextrin, solvent: 50% water in propanol; read-out: Solubility at 65° C.

{"columns": ["compound", "solubility"],
 "data": [
  ["Nc1ncc(-c2cc(N3C[C@@H]4C[C@H]3CO4)nc(N3CCC(F)(F)C3)n2)cc1OC(F)F [Compound 1]", "< 50 mg/mL"]
]}

* * *

# experimental_details: Solubility of compound 1 in the solvent under evaluation at 22° C. and 65° C. (crystallization study)
# Assay type: physicochemical
# condition_parameters: 50% water in ethanol, 65 °C, aqueous with cosolvent or surfactant or cyclodextrin, solvent: 50% water in ethanol; read-out: Solubility at 65° C.
attribute_measured: solubility

{"columns": ["chemical_structure", "attribute_measured", "measured_value"],
 "data": [
  ["Nc1ncc(-c2cc(N3C[C@@H]4C[C@H]3CO4)nc(N3CCC(F)(F)C3)n2)cc1OC(F)F", "solubility", "< 50 mg/mL"]
]}

* * *

# experimental_details: Solubility of compound 1 in the solvent under evaluation at 22° C. and 65° C. (crystallization study)
# Type: physicochemical
# condition_parameters: 2-methyl THF, 65 °C, organic solvent or mixture, solvent: 2-methyl THF; read-out: Solubility at 65° C.

{"columns": ["compound", "solubility"],
 "data": [
  ["Nc1ncc(-c2cc(N3C[C@@H]4C[C@H]3CO4)nc(N3CCC(F)(F)C3)n2)cc1OC(F)F [Compound 1]", "> 50 mg/mL"]
]}

* * *

# experimental_details: Solubility of compound 1 in the solvent under evaluation at 22° C. and 65° C. (crystallization study)
# Assay type: physicochemical
# condition_parameters: 15% water in propanol, 65 °C, organic solvent or mixture, solvent: 15% water in propanol; read-out: Solubility at 65° C.

{"columns": ["molecule", "solubility"],
 "data": [
  ["Nc1ncc(-c2cc(N3C[C@@H]4C[C@H]3CO4)nc(N3CCC(F)(F)C3)n2)cc1OC(F)F [Compound 1]", "< 50 mg/mL"]
]}

* * *

# experimental_details: Solubility of compound 1 in the solvent under evaluation at 22° C. and 65° C. (crystallization study)
# Type: physicochemical
# condition_parameters: 5% water in methanol, 65 °C, organic solvent or mixture, solvent: 5% water in methanol; read-out: Solubility at 65° C.
attribute_measured: solubility

{"columns": ["chemical_structure", "measured_value"],
 "data": [
  ["Nc1ncc(-c2cc(N3C[C@@H]4C[C@H]3CO4)nc(N3CCC(F)(F)C3)n2)cc1OC(F)F", "< 50 mg/mL"]
]}

* * *

# experimental_details: Solubility of compound 1 in the solvent under evaluation at 22° C. and 65° C. (crystallization study)
# Type: physicochemical
# condition_parameters: 15% water in ethanol, 65 °C, organic solvent or mixture, thermodynamic from solid, solvent: 15% water in ethanol; read-out: Solubility at 65° C.
attribute_measured: solubility

{"columns": ["compound", "measured_value"],
 "data": [
  ["Nc1ncc(-c2cc(N3C[C@@H]4C[C@H]3CO4)nc(N3CCC(F)(F)C3)n2)cc1OC(F)F [Compound 1]", "< 50 mg/mL"]
]}

* * *

# experimental_details: Solubility of compound 1 in the solvent under evaluation at 22° C. and 65° C. (crystallization study)
# Format: physicochemical
# condition_parameters: propanol, 22 °C, organic solvent or mixture, thermodynamic from solid, solvent: Propanol; read-out: Solubility at 22° C.

{"columns": ["chemical_structure", "solubility"],
 "data": [
  ["Nc1ncc(-c2cc(N3C[C@@H]4C[C@H]3CO4)nc(N3CCC(F)(F)C3)n2)cc1OC(F)F", "< 50 mg/mL"]
]}

* * *

# experimental_details: Solubility of compound 1 in the solvent under evaluation at 22° C. and 65° C. (crystallization study)
# Type: physicochemical
# condition_parameters: Chloroform, 22 °C, organic solvent or mixture, thermodynamic from solid, solvent: Chloroform; read-out: Solubility at 22° C.
attribute_measured: solubility

{"columns": ["chemical_structure", "measured_value"],
 "data": [
  ["Nc1ncc(-c2cc(N3C[C@@H]4C[C@H]3CO4)nc(N3CCC(F)(F)C3)n2)cc1OC(F)F", "< 50 mg/mL"]
]}

* * *

# experimental_details: Solubility of compound 1 in the solvent under evaluation at 22° C. and 65° C. (crystallization study)
# Type: physicochemical
# condition_parameters: 15% water in methanol, 65 °C, organic solvent or mixture, solvent: 15% water in methanol; read-out: Solubility at 65° C.
# Procedure: Crystalline compound 1 was evaluated. Crystallization study procedures were done based on the solubility of compound 1 in the solvent under evaluation as follows. The results are presented below in Table 10 where: * refers to compound 1 prepared as described above; and ** refers to compound 1 prepared as described above and further incubated at 100% relative humidity at 22° C. for 17 days.
attribute_measured: solubility

{"columns": ["chemical_structure", "attribute_measured", "measured_value"],
 "data": [
  ["Nc1ncc(-c2cc(N3C[C@@H]4C[C@H]3CO4)nc(N3CCC(F)(F)C3)n2)cc1OC(F)F", "solubility", "< 50 mg/mL"]
]}

* * *

# experimental_details: Solubility of compound 1 in the solvent under evaluation at 22° C. and 65° C. (crystallization study)
# Format: physicochemical
# condition_parameters: Methanol, 22 °C, organic solvent or mixture, thermodynamic from solid, solvent: Methanol; read-out: Solubility at 22° C.

{"columns": ["molecule", "solubility"],
 "data": [
  ["Nc1ncc(-c2cc(N3C[C@@H]4C[C@H]3CO4)nc(N3CCC(F)(F)C3)n2)cc1OC(F)F [Compound 1]", "< 50 mg/mL"]
]}
